Tested on: OVCAR-3 ovarian
Experiment: NCI-60 one-dose screen, 48 h
Settings: 10 µM unless noted
Compounds without any hit were thinned out: in the full panel of roughly 83,000, 20% have a hit. The source made the active and inactive calls. How the source made its calls: active means growth percent below 10; inactive means the rest.
Your reply should match one of these outcome classes. active, inactive

IN: Record request — test call for COc1cc2c(cc1OC)CC[N+](CCC[N+](C)(C)C)=C2
OUT: inactive

IN: Name the outcome recorded for CCn1c2ccccc2c2cc(C(O)c3cccc4ncccc34)ccc21 (stereo not given) in the assay.
OUT: active

IN: Per the records of this test, what outcome belongs to Cc1ccc(-c2nc(C#N)c(S(=O)(=O)n3nc(C)cc3N)o2)cc1 ?
OUT: inactive

IN: For this molecule, state the assay outcome: COc1cc2c(c(OC)c1OC)C(=O)CC(c1cccc(C(=O)Nc3ccc(Br)cc3)c1)O2 (stereo not given)
OUT: inactive

IN: What outcome does the record of this test show for COc1ccc(C2=C/C(=C\c3ccccc3O)C(=O)N2Cc2ccccc2)cc1 ?
OUT: inactive

IN: Fill in: this test's call for O=C(Nc1ccccc1CNc1nc(Nc2ccc(OCCN3CCCC3)cc2)ncc1Cl)NC1CCCCC1 is ___
OUT: inactive

IN: What did this assay record as the result for CN1CCN(Cc2ccc(NC(=O)c3cncc(C#Cc4c(N)ncc5cc(F)ccc45)c3)cc2C(F)(F)F)CC1 ?
OUT: inactive

IN: Recorded call for N#C/C(=C/C=C/c1ccccc1)S(=O)c1ccccc1 (stereo not given) ?
OUT: active

IN: Outcome logged for CC(C)=CC(=O)C1C(=O)c2ccccc2C1=O in this assay:
OUT: inactive

IN: Per the assay record, what outcome was assigned to COC(=O)c1sc(-c2ccc(C)cc2)cc1O ?
OUT: inactive

IN: Hi, do you know how COC(=O)c1c(C(=O)OC)c2ccc3c4ncccc4ccc3n2c1C(=O)c1ccc(C)cc1 came out in this test?
OUT: inactive

IN: Entry CC/C(=C(/c1ccc(Cl)cc1)c1ccc(OCCN2CCCCCC2)cc1)c1ccccc1 : call = ?
OUT: inactive

IN: Record request — test call for CCOC(=O)c1c(Nc2nc3ccccc3s2)sc2c1CCC(=O)C2
OUT: inactive

IN: State the result this test recorded for NCCCCCNc1noc(Cc2c[nH]c3cc(Br)ccc23)n1 .
OUT: active

IN: Please indicate how the test categorized COc1ccccc1/C=C/C1=C(C)CCC(c2ccccc2OC)C1C (stereo not given) .
OUT: active

IN: Which result was noted for this molecule in the test: COC12C=C/C(=C(/C(=O)OCc3ccccn3)C(=O)CCCCCCCCC3(OC)C=C/C(=C(/C(=O)OCc4ccccn4)C(=O)CCCCCCCC1)O3)O2
OUT: active

IN: Which outcome was assigned to COC(=O)c1nc(-c2ccccc2)oc1S(=O)(=O)NCC(c1ccc(Cl)cc1)N1CCCCC1 (stereo not given) in this test?
OUT: inactive

IN: # lookup: test call for O=[N+]([O-])c1ccc(Oc2cccc3c(Oc4ccc([N+](=O)[O-])cc4[N+](=O)[O-])cccc23)c([N+](=O)[O-])c1
OUT: inactive

IN: What classification did COc1cc(C(=O)/C=C/c2c(-c3cccs3)nc3sc(C)cn23)cc(OC)c1OC end up with in this test?
OUT: active

IN: Please indicate how the test categorized Nc1ccc(Cl)c2c(=O)c3ccccc3[nH]c12 .
OUT: inactive

IN: How was Cc1ccc(-c2nn(CC(=O)N3CCOCC3)c(N)c2C#N)cc1 classified in this test?
OUT: inactive

IN: Assay result, entry COc1ccc(-c2nc3cc(C(=O)NC4CCCCC4)ccc3n2C2CCCCC2)cc1 — outcome?
OUT: inactive

IN: Call for entry O=C1c2c(c3c4cccnc4[nH]c3c3ccc4ccccc4c23)C(=O)N1O :
OUT: inactive

IN: In this assay, the call recorded for C=C(C)[C@@H]1CC[C@]2(COC(=O)c3cccnc3)CC[C@]3(C)[C@H](CC[C@@H]4[C@@]5(C)CCCN(C(=O)c6cccnc6)C(C)(C)[C@@H]5CC[C@]43C)[C@@H]12 was what?
OUT: inactive

IN: Hi team, can someone confirm the assay call for COc1ccc(-c2cn(Cc3ccc4c(Br)cc(Br)c(O)c4n3)nn2)cc1 ?
OUT: inactive

IN: Check the results log: what was the call for CCOc1cc(\C=N/N=C(N)/C(N)=N\N=C/c2ccc(O)c(OCC)c2)ccc1O ?
OUT: inactive

IN: So what was the verdict on O=C1c2ccccc2-c2c1c1ccncc1c(=O)n2CCCn1ccnc1 in this test?
OUT: inactive

IN: Please let me know the test result on file for COc1ccc(Nc2nc(Nc3cc(C)[nH]n3)c3cc(OC)c(OC)cc3n2)cc1 .
OUT: active

IN: Record lookup: outcome of this test for O=c1c(Cc2ccc(F)cc2)cc(-c2ccccc2)nn1C/C(=N/O)c1ccccc1 ?
OUT: inactive

IN: Hey, what did the test say about COC(=O)c1c(C)nc(C)c2c1C(=O)C(Br)=C(NCCN1CCOCC1)C2=O ?
OUT: inactive

IN: Look up the recorded call for COC(=O)[C@H]1Cc2c([nH]c3ccccc23)[C@H](c2ccc3c(c2)OCO3)N1 in this test.
OUT: inactive

IN: What outcome does the record of this test show for Oc1ccc(Cc2ccc(O)c3ncccc23)c2cccnc12 ?
OUT: inactive

IN: Could you kindly confirm the outcome this assay logged for NC(=N\N=C/c1ccc(Cl)cc1Cl)/C(N)=N\N=C/c1ccc(Cl)cc1Cl ?
OUT: inactive

IN: How did this test come out for CCCCCCCCNc1ncnc2c1ncn2Cc1nnc2c3ccccc3c(Cl)nn12 ?
OUT: inactive

IN: Just curious, what result did Cc1c(-c2cnc3ccc(Cl)cc3c2C(=O)O)nnn1-c1ccc(Cl)cc1 get here?
OUT: inactive

IN: Any idea what this test logged for CCOC(=O)c1c(C)c2c(n1Cc1ccccc1)CSc1cc(C#N)c(=O)[nH]c1-2 ?
OUT: inactive

IN: Could you check what this test reported for O=c1oc2ccccc2cc1-c1nn(-c2ccccc2)cc1/C=N/Nc1nc(-c2ccccc2)c(N=Nc2ccccc2)s1 ?
OUT: inactive

IN: Which outcome was assigned to CCCCCCCCCCCCCCCCCCOc1ccccc1CC(=O)OCC[N+]1(C)CCCCC1 in this test?
OUT: inactive

IN: In this assay, the call recorded for O=C1/C(=C/c2ccc(Br)cc2)COc2ccc(O)cc21 was what?
OUT: inactive

IN: What did this assay record as the result for CNC(=O)c1cc(Oc2ccc3nc(NC(=O)Nc4ccc(F)cc4F)sc3c2)ccn1 ?
OUT: inactive

Data origin, for the record: PubChem BioAssay (NCI)
